Each item that follows carries a reported pEC50.
- assay_target: T1, human 5T4-His protein (human, UniProt Q13641 32-355)
- T1 construct: also called recombinant 5T4 protein (human 5T4-his tag); human 5T4 protein; not shown: His tag
- T1 sequence (looked up): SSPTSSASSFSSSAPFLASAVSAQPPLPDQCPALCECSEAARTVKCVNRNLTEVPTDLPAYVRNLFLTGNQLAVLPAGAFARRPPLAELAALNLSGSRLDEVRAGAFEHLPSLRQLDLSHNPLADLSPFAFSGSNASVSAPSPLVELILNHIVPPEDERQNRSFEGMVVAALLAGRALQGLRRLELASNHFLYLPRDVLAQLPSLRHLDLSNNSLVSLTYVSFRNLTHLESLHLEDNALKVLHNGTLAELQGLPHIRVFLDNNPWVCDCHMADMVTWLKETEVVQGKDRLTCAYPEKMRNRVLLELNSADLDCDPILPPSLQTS
- measurement_protocol: ELISA, coated 5T4-His
- Experimental: To evaluate the binding activity of 393E9 humanized antibodies to human 5T4, the 393E9 chimeric antibody (393E9-C) along with 393E9 humanized mAbs were subjected to ELISA test. Briefly, microtiter plates were coated with human 5T4-His protein at 1 μg/ml in PBS, 100 μl/well at 4° C. overnight, then blocked with 150 μl/well of 1% BSA. […] After washing, the plates were developed with TMB substrate and analyzed by spectrophotometer at OD 450 nm. […]
pEC50: −log10 of the molar value.
assay_readout: pEC50

- binder: "393E9_hVH1_hVL3 (antibody, V domains shown, humanized) VH: EVQLVESGGGLVQPGGSLRLSCAASGFTFTDYYMSWVRQAPGKGLEWVGFIRNKGNGYTTENSASVKGRFTISRDNSKSTLYLQMNSLRAEDTAVYYCARYRGNPHYAMDYWGQGTLVTVSS VL: DIQLTQSPSSLSASVGDRVTITCRASESVEFYGTSFLQWYQQKPGKAPKLLIYGASNVESGVPSRFSGSGSGTDFTLTISSLQPEDIATYFCQQSRKVPSTFGGGTKVEIK"
  value_measured: 10.07
- binder: "393E9_hVH3_hVL4 (antibody, V domains shown, humanized) VH: QVQLVESGGGVVQPGGSLRLSCAASGFTFTDYYMSWVRQAPGKGLEWVGFIRNKGNGYTTENSASVKGRFTISRDNSKSTLYLQMNSLRAEDTAVYYCARYRGNPHYAMDYWGQGTLVTVSS VL: DIVLTQSPLSLPVTPGEPASISCRASESVEFYGTSFLQWYLQKPGQSPQLLIYGASNVESGVPDRFSGSGSGTDFTLKISRVEAEDIGVYFCQQSRKVPSTFGGGTKVEIK"
  value_measured: 10.02
- binder: "393E9_hVH6_hVL3 (antibody, V domains shown, humanized) VH: EVQLVESGGGLVQPGGSLRLSCAASGFTFTDYYMSWVRQAPGKGLEWVGFIRNKGNGYTTENSASVKGRFTISRDNAKSSLYLQMNSLRAEDTAVYYCARYRGNPHYAMDYWGQGTLVTVSS VL: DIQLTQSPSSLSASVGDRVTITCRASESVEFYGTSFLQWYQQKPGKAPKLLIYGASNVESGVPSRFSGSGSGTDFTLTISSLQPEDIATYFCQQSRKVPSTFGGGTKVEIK"
  value_measured: 10.28
- binder: "393E9_hVH5_hVL4 (antibody, V domains shown, humanized) VH: EVQLVESGGGLVQPGRSLRLSCTASGFTFTDYYMSWVRQAPGKGLEWVGFIRNKGNGYTTENSASVKGRFTISRDNSKSILYLQMNSLKTEDTAVYYCARYRGNPHYAMDYWGQGTLVTVSS VL: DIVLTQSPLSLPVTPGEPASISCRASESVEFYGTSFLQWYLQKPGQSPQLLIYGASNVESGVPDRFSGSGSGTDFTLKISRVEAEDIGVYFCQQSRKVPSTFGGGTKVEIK"
  value_measured: 9.77
- binder: "393E9_hVH5_hVL2 (antibody, V domains shown, humanized) VH: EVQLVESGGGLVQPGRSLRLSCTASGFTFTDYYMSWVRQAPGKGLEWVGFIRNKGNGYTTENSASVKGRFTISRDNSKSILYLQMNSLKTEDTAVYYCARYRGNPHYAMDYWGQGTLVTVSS VL: EIVLTQSPATLSVSPGERATLSCRASESVEFYGTSFLQWYQQKPGQAPRLLIYGASNVESGIPARFSGSGSGTEFTLTISSLQSEDIAVYFCQQSRKVPSTFGGGTKVEIK"
  value_measured: 9.57
